molecular target: Solute carrier organic anion transporter family member 1B3 (Homo sapiens, UniProt Q9NPD5); conditions: chinese hamster, cho, 10 µM
Sequence (Q9NPD5 whole entry): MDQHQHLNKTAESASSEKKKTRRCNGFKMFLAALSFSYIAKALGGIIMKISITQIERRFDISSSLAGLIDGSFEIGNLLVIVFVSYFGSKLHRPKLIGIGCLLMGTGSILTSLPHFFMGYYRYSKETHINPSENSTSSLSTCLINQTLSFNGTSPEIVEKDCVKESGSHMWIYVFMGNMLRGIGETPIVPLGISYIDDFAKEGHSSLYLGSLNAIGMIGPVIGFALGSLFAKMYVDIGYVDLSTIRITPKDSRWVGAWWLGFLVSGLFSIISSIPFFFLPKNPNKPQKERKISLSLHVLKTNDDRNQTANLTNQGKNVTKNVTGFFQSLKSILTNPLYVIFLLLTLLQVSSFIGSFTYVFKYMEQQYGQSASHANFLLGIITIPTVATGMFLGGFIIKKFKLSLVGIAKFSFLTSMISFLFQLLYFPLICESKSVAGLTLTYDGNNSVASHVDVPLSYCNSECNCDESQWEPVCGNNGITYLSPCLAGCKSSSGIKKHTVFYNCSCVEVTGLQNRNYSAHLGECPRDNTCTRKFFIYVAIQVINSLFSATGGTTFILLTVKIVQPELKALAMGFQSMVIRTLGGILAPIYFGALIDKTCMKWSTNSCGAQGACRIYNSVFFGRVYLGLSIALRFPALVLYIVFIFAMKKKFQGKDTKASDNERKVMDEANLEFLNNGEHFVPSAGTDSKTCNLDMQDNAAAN
Residues, ends and D or L forms follow the SMILES beside them.
Form field: residual activity (one value per entry).

>  <molecule>
O=C(O)CCCc1ccc(N(CCCl)CCCl)cc1

>  <residual activity [%]>
102.7

$$$$
>  <molecule>
CC1CC[C@]2(OC1)OC1C[C@H]3[C@@H]4CC[C@H]5C[C@@H](O)CC[C@]5(C)C4=CC[C@]3(C)C1[C@@H]2C (some centres not stated)

>  <residual activity [%]>
108.3

$$$$
>  <molecule>
COc1ccccc1OCC(O)COC(N)=O (configuration not stated)

>  <residual activity [%]>
104.7

$$$$
>  <molecule>
CN(C)CCc1c[nH]c2ccc(C[C@H]3COC(=O)N3)cc12

>  <residual activity [%]>
102.5

$$$$
>  <molecule>
N[C@@H](Cc1ccccc1)C(=O)N[C@@H](Cc1ccc(O)cc1)C(=O)O [PHENYLALANYLTYROSINE] (H-Phe-Tyr-OH)

>  <residual activity [%]>
68.6

$$$$
>  <molecule>
COc1cc(O)c(C(=O)c2ccccc2)cc1O

>  <residual activity [%]>
120.9

$$$$
>  <molecule>
COc1ccc(-c2cc(=O)c3cc(OC)ccc3o2)cc1

>  <residual activity [%]>
110.4

$$$$
>  <molecule>
O=C(Cc1ccccc1)NO [PHENYLACETOHYDROXAMIC ACID]

>  <residual activity [%]>
75.25

$$$$
>  <molecule>
O=c1ccc2ccc(O)c(O)c2o1

>  <residual activity [%]>
94.36

$$$$
>  <molecule>
CN/C(=N/CCSCc1nc[nH]c1C)NC#N

>  <residual activity [%]>
96.42

$$$$
>  <molecule>
NC1(C(=O)O)CCC1

>  <residual activity [%]>
95.93

$$$$
>  <molecule>
C[N+](C)(C)CCCCCC[N+](C)(C)C.[Br-].[Br-] [HEXAMETHONIUM BROMIDE]

>  <residual activity [%]>
77.59

$$$$
>  <molecule>
CCCCC(=O)O[C@]1(C(=O)CO)[C@@H](C)C[C@H]2[C@@H]3CCC4=CC(=O)C=C[C@]4(C)[C@@]3(F)[C@@H](O)C[C@@]21C [BETAMETHASONE VALERATE]

>  <residual activity [%]>
10.24

$$$$
>  <molecule>
CCC[C@@H]1C[C@@H](C(=O)N[C@@H]([C@H]2O[C@H](SC)[C@H](O)[C@@H](O)[C@H]2O)[C@H](C)Cl)N(C)C1.Cl [CLINDAMYCIN HYDROCHLORIDE]

>  <residual activity [%]>
115.2

$$$$
>  <molecule>
C[C@@H]1O[C@@H](O[C@H]2[C@H](Oc3cc(O)c4c(c3)O[C@H](c3ccc(O)cc3)CC4=O)O[C@H](CO)[C@@H](O)[C@@H]2O)[C@H](O)[C@H](O)[C@H]1O

>  <residual activity [%]>
137.8

$$$$
>  <molecule>
Cl.NCCc1ccc(S(=O)(=O)F)cc1

>  <residual activity [%]>
100

$$$$
>  <molecule>
CCN(Cc1ccncc1)C(=O)C(CO)c1ccccc1 (configuration not stated) [TROPICAMIDE]

>  <residual activity [%]>
81.94

$$$$

====

target: Solute carrier organic anion transporter family member 1B1 (Homo sapiens, UniProt Q9Y6L6); conditions: chinese hamster, cho, 10 µM
Sequence (Q9Y6L6 whole entry): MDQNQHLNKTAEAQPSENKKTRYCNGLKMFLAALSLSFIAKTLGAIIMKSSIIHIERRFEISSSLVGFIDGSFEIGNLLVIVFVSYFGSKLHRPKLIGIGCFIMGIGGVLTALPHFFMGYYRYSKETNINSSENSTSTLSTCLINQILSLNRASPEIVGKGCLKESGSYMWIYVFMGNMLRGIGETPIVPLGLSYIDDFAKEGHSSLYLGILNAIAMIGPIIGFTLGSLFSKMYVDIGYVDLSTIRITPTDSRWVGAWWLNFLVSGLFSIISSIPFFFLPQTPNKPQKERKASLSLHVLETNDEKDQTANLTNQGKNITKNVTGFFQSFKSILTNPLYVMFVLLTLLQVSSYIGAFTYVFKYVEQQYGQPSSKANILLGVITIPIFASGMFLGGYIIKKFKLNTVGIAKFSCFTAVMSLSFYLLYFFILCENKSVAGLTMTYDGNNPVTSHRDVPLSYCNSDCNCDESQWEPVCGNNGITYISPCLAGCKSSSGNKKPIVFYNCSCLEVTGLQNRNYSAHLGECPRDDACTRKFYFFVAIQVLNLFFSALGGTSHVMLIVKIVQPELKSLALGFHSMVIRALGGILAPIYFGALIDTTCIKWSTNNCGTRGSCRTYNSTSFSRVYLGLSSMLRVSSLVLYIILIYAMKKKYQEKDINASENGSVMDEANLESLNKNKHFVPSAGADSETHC

>  <compound>
CC[C@H](/C=C/[C@@H](C)[C@H]1CC[C@H]2[C@@H]3CC=C4C[C@@H](O)CC[C@]4(C)[C@H]3CC[C@]12C)C(C)C [STIGMASTEROL]

>  <residual activity, %>
110.2

$$$$
>  <compound>
ClC(Cl)=C(c1ccc(Cl)cc1)c1ccc(Cl)cc1 [DICHLORODIPHENYLDICHLOROETHYLENE]

>  <residual activity, %>
94.96

$$$$
>  <compound>
ClC1=C(Cl)C2(Cl)C3C4CC(C5OC45)C3C1(Cl)C2(Cl)Cl (stereo not drawn) [ENDRIN]

>  <residual activity, %>
107.3

$$$$
>  <compound>
c1ccc2c(c1)[nH]c1cnccc12 [NORHARMANE]

>  <residual activity, %>
95.1

$$$$
>  <compound>
CC(=O)O[C@]1(C)CC[C@@]23C[C@H]1C(C)(C)[C@@H]2CC[C@H]3C [CEDRYL ACETATE]

>  <residual activity, %>
134

$$$$
>  <compound>
O=C(O)CCCOc1ccc(Cl)cc1Cl

>  <residual activity, %>
123.3

$$$$
>  <compound>
COc1ccc2c(c1)OC/C(=C/c1ccc(O)c(O)c1)C2=O [SAPPANONE A 7-METHYL ETHER]

>  <residual activity, %>
159.5

$$$$
>  <compound>
C=CC(C1=CC(=O)C(OC)=CC1=O)c1ccccc1 (stereo not drawn) [4-METHOXYDALBERGIONE]

>  <residual activity, %>
77.75

$$$$
>  <compound>
CCC(=O)c1c(O)cc(O)cc1O [FLOPROPIONE]

>  <residual activity, %>
69.54

$$$$
>  <compound>
COc1ccc(-c2oc3ccccc3c(=O)c2O)cc1OC [3-HYDROXY-3',4'-DIMETHOXYFLAVONE]

>  <residual activity, %>
119.6

$$$$
>  <compound>
CC(C)(O)[C@@H]1Cc2cc3ccc(=O)oc3cc2O1 [MARMESIN]

>  <residual activity, %>
89.64

$$$$
>  <compound>
N[C@@H](CCC(=O)N[C@@H](CS)C(=O)NCC(=O)O)C(=O)O [GLUTATHIONE]

>  <residual activity, %>
67.16

$$$$
>  <compound>
COC(=O)c1c(OC)cc2c(c1C)Oc1c(Cl)c(O)c(Cl)c(C)c1C(=O)O2 [GANGALEOIDIN]

>  <residual activity, %>
4.093

$$$$
>  <compound>
c1ccc(/N=N/c2ccccc2)cc1 [AZOBENZENE]

>  <residual activity, %>
216.3

$$$$
>  <compound>
CC(C)CCC[C@@H](C)[C@H]1CC[C@H]2[C@@H]3CC(=O)[C@H]4C[C@@H](O)CC[C@]4(C)[C@H]3CC[C@]12C [5alpha-CHOLESTAN-3beta-OL-6-ONE]

>  <residual activity, %>
101.9

$$$$
>  <compound>
Sc1nc2ccccc2s1 [2-MERCAPTOBENZOTHIAZOLE]

>  <residual activity, %>
158.6

$$$$
>  <compound>
O=C([O-])c1cc2cc(Cc3cccnc3)ccc2o1.[Na+]

>  <residual activity, %>
121

$$$$
>  <compound>
CCCn1cnc2c1c(=O)n(CCCCC(C)=O)c(=O)n2C [PROPENTOFYLLINE]

>  <residual activity, %>
126.3

$$$$

====

pKi: −log10 of the molar value.
Notes on pKi obtained with Solute carrier organic anion transporter family member 1B3 (Homo sapiens).

>  <compound>
CCCCCN(CCCCC)C(=O)C(CCC(=O)[O-])NC(=O)c1ccc(Cl)c(Cl)c1.[Na+] (stereo unspecified) [LORGLUMIDE SODIUM]

>  <target-system>
Solute carrier organic anion transporter family member 1B3 (Homo sapiens)

>  <pKi>
5.57

$$$$
>  <compound>
CC(C)C1=CC2=CC[C@@H]3[C@](C)(CCC[C@@]3(C)C(=O)O)[C@H]2CC1

>  <target-system>
Solute carrier organic anion transporter family member 1B3 (Homo sapiens)

>  <pKi>
5.39

$$$$
>  <compound>
O=C1C=CC(=C(c2ccc(O)cc2)c2ccc(O)cc2)C=C1

>  <target-system>
Solute carrier organic anion transporter family member 1B3 (Homo sapiens)

>  <pKi>
5.50

$$$$
>  <compound>
COC(=O)CC[C@@H](C)[C@H]1CC[C@H]2[C@@H]3[C@H](O)C[C@@H]4C[C@H](O)CC[C@]4(C)[C@H]3C[C@H](O)[C@]12C

>  <target-system>
Solute carrier organic anion transporter family member 1B3 (Homo sapiens)

>  <pKi>
5.54

$$$$
>  <compound>
CCC(C)C(=O)O[C@@H]1C[C@@]2(C)[C@H](c3ccoc3)OC(=O)CC23OC2(C)O[C@]14[C@]1(C)[C@@H](CC(=O)OC)C5(C)CC1(O)[C@](O)(C5OC(=O)C1(C)OC1C)[C@@H](OC(C)=O)[C@]34O2 (stereo partly specified)

>  <target-system>
Solute carrier organic anion transporter family member 1B3 (Homo sapiens)

>  <pKi>
6.22

$$$$
>  <compound>
CC(=O)O[C@@H]1C[C@@H]2C(C)(C)[C@H](O)C=C[C@@]2(C)[C@@H]2CC[C@@]3(C)C(=CC(=O)O[C@@H]3c3ccoc3)[C@@]12C

>  <target-system>
Solute carrier organic anion transporter family member 1B3 (Homo sapiens)

>  <pKi>
5.54

$$$$
>  <compound>
CC(=O)O[C@H]1C[C@@H](OC(C)=O)C(C)(C)[C@@H]2C[C@@H](OC(C)=O)[C@]3(C)[C@H]([C@H](OC(C)=O)C[C@@]4(C)[C@H](c5ccoc5)OC(=O)[C@H]5O[C@@]534)[C@@]12C

>  <target-system>
Solute carrier organic anion transporter family member 1B3 (Homo sapiens)

>  <pKi>
5.52

$$$$
>  <compound>
CC(=O)O[C@@H]1C[C@@H]2C(C)(C)C(=O)C=C[C@@]2(C)[C@@H]2CC[C@@]3(C)C(=CC(=O)O[C@@H]3c3ccoc3)[C@@]12C

>  <target-system>
Solute carrier organic anion transporter family member 1B3 (Homo sapiens)

>  <pKi>
5.54

$$$$
>  <compound>
CC(=O)O[C@@H]1C[C@H]2C(C)(C)C(=O)CC[C@]2(C)[C@H]2CC[C@]3(C)C(=CC(=O)O[C@H]3c3ccoc3)[C@@]21C

>  <target-system>
Solute carrier organic anion transporter family member 1B3 (Homo sapiens)

>  <pKi>
5.22

$$$$
>  <compound>
CC(=O)O[C@H]1CC[C@]2(C)C(C[C@@H](OC(C)=O)[C@]3(C)C4=CC(=O)O[C@H](c5ccoc5)[C@@]4(C)CCC23)C1(C)C (stereo partly drawn) [3-DEOXO-3beta-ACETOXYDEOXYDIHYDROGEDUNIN]

>  <target-system>
Solute carrier organic anion transporter family member 1B3 (Homo sapiens)

>  <pKi>
5.57

$$$$
>  <compound>
COC(=O)/C(C)=C\CC12OC(C)(C)C3CC(C=C4C(=O)c5c(OC)c6c(c(CC=C(C)C)c5OC431)OC(C)(CCC=C(C)C)C=C6)C2=O (stereo unspecified) [DIMETHYL GAMBOGATE]

>  <target-system>
Solute carrier organic anion transporter family member 1B3 (Homo sapiens)

>  <pKi>
5.40

$$$$
>  <compound>
CC(=O)Oc1c2c(c(CC=C(C)C)c3c1C(=O)C1=C[C@@H]4CC5C(C)(C)OC(C/C=C(\C)C(=O)O)(C4=O)[C@@]15O3)OC(C)(CCC=C(C)C)C=C2 (stereo partly specified)

>  <target-system>
Solute carrier organic anion transporter family member 1B3 (Homo sapiens)

>  <pKi>
5.38

$$$$
>  <compound>
CC[C@@H](C(=O)[C@@H](C)[C@@H](O)[C@H](C)CCc1ccc(C)c(O)c1C(=O)[O-])[C@H]1O[C@](CC)([C@H]2CC[C@](O)(CC)[C@H](C)O2)C[C@@H]1C.[Na+] [LASALOCID A SODIUM]

>  <target-system>
Solute carrier organic anion transporter family member 1B3 (Homo sapiens)

>  <pKi>
6.23

$$$$
>  <compound>
Cc1onc(-c2c(Cl)cccc2Cl)c1C(=O)N[C@@H]1C(=O)N2[C@@H]1SC(C)(C)[C@@H]2C(=O)[O-].O.[Na+] [DICLOXACILLIN SODIUM]

>  <target-system>
Solute carrier organic anion transporter family member 1B3 (Homo sapiens)

>  <pKi>
5.81

$$$$
>  <compound>
CC(C)=CCCC1(C)C=Cc2c(O)c3c(c(CC=C(C)C)c2O1)OC12C(=CC4CC1C(C)(C)OC2(C/C=C(/C)C(=O)O)C4O)C3=O (stereo unspecified) [DIHYDROGAMBOGIC ACID]

>  <target-system>
Solute carrier organic anion transporter family member 1B3 (Homo sapiens)

>  <pKi>
5.65

$$$$
>  <compound>
CC1(C)[C@@H](O)C=C[C@]2(C)[C@H]3CC[C@@]4(C)[C@H](c5ccoc5)OC(=O)[C@H]5O[C@]54[C@]3(C)C(=O)C[C@@H]12

>  <target-system>
Solute carrier organic anion transporter family member 1B3 (Homo sapiens)

>  <pKi>
5.42

$$$$
>  <compound>
COc1c(CC=C(C)C)c2c(c3oc(=O)c(-c4ccc(O)cc4)c(O)c13)C=CC(C)(C)O2

>  <target-system>
Solute carrier organic anion transporter family member 1B3 (Homo sapiens)

>  <pKi>
6.25

$$$$
>  <compound>
C[C@H]1CC[C@@]2(OC1)O[C@H]1C[C@H]3[C@@H]4CC[C@@H]5C[C@@H](O)CC[C@]5(C)[C@H]4CC[C@]3(C)[C@H]1[C@@H]2C

>  <target-system>
Solute carrier organic anion transporter family member 1B3 (Homo sapiens)

>  <pKi>
7.10

$$$$
>  <compound>
C/C=C(\C)C(=O)O[C@H]1[C@H](OC(C)=O)[C@@]2(CO)C(CC1(C)C)C1=CC[C@@H]3[C@@]4(C)CC[C@H](O[C@@H]5O[C@H](C(=O)O)[C@@H](O[C@@H]6O[C@H](CO)[C@@H](O)[C@H](O)[C@H]6O)[C@H](O)[C@H]5O[C@@H]5O[C@H](CO)[C@@H](O)[C@H](O)[C@H]5O)[C@H](CO)C4CC[C@@]3(C)[C@@]1(C)C[C@H]2O (stereo partly specified)

>  <target-system>
Solute carrier organic anion transporter family member 1B3 (Homo sapiens)

>  <pKi>
5.58

$$$$
>  <compound>
COC(=O)C[C@H]1C2(C)CC34OC5(C)O[C@@]6([C@H](OC(C)=O)C(OC(C)=O)[C@]7(C)C(/C(=C(/O)C(C)C)C(=O)O[C@H]7c7ccoc7)[C@@]6(O5)[C@H](OC(C)=O)[C@@]3(O)C2OC(=O)C(C)C)[C@]14C (stereo partly specified)

>  <target-system>
Solute carrier organic anion transporter family member 1B3 (Homo sapiens)

>  <pKi>
6.28

$$$$
>  <compound>
CCCCCCCCCc1ccc(OCCOCCOCCOCCOCCOCCOCCOCCOCCO)cc1

>  <target-system>
Solute carrier organic anion transporter family member 1B3 (Homo sapiens)

>  <pKi>
5.54

$$$$
